# Test system: Pseudomonas aeruginosa
# assay-procedure: Zone of inhibition of Pseudomonas aeruginosa after treatment with the compound
# Format: functional

compound: C/N=C1\C(Cl)=C(O)OC1O (stereo not given)
unit-abbrev: mm
Inhibition: 8
//
compound: OC1=C(Cl)/C(=N\Cc2ccccc2)C(O)O1 (stereo not given)
unit-abbrev: mm
Inhibition: 6
//
compound: C/N=C1\C(Br)=C(O)OC1O (stereo not given)
unit-abbrev: mm
Inhibition: 7
//
compound: N=C1C(Cl)=C(O)OC1O (stereo not given)
unit-abbrev: mm
Inhibition: 8
//
compound: C[S+](C)[O-] [DIMETHYL SULFOXIDE]
unit-abbrev: mm
Inhibition: 0

----------
# Test system: Escherichia coli
# assay-procedure: Zone of inhibition of Escherichia coli after treatment with the compound
# Format: functional

molecule: C[S+](C)[O-] [DIMETHYL SULFOXIDE]
target-entity: Escherichia coli
unit-abbrev: mm
Inhibition: 0
--
molecule: C/N=C1\C(Cl)=C(O)OC1O (stereo not given)
target-entity: Escherichia coli
unit-abbrev: mm
Inhibition: 11
--
molecule: N=C1C(Cl)=C(O)OC1O (stereo not given)
target-entity: Escherichia coli
unit-abbrev: mm
Inhibition: 8
--
molecule: C/N=C1\C(Br)=C(O)OC1O (stereo not given)
target-entity: Escherichia coli
unit-abbrev: mm
Inhibition: 9
--
molecule: OC1=C(Cl)/C(=N\Cc2ccccc2)C(O)O1 (stereo not given)
target-entity: Escherichia coli
unit-abbrev: mm
Inhibition: 6
